Form field: pIC50 (one value per entry).
System under test: Recombinant human HDAC8 (Homo sapiens)
Construct: purchased Enzo Life Sciences BML-SE145-0100
Sequence (Q9BY41 whole entry): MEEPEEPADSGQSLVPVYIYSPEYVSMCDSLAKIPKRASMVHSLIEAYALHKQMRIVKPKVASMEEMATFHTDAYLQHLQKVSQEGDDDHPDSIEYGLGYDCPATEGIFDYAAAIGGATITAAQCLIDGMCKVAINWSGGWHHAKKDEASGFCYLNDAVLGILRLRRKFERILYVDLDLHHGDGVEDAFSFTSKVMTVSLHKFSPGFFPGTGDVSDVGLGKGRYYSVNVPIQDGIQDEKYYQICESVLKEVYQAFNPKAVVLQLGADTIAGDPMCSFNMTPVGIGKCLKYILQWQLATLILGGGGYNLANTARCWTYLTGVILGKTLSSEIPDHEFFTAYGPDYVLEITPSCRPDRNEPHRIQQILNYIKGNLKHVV
Experiment description: Human HDAC enzyme inhibitor Fluor-de-Lys assay, HDAC8
Type: biochemical
Condition set: recombinant human HDAC8, Fluor-de-Lys assay
Please keep in mind that pIC50 is minus log10 of the molar concentration; only the number is needed.

Illustrative cases are given below, each with its answer.
{"columns": ["Compound", "System under test", "pIC50"],
 "data": [
  ["CCC(=O)CCCCC[C@H](NC(=O)[C@@H]1C[C@]12CCN(C)C2)c1ncc(-c2cc3ccccc3nc2OC)[nH]1 [Compound 329]", "Recombinant human HDAC8 (Homo sapiens)", 5.15],
  ["CCC(=O)CCCCC[C@H](NC(=O)C1NC(=O)CC12CN(C)C2)c1ncc(-c2cc3ccccc3nc2OC)[nH]1 (stereo partly shown) [Compound 317]", "Recombinant human HDAC8 (Homo sapiens)", 5.31]
]}

[Q] Write down the reported pIC50 of CCC(=O)CCCCCC(NC(=O)C1CCC2(CC1)OC(=O)c1cnccc12)c1nnc(-c2cc3ccccc3nc2OC)o1 (stereo not shown) [Compound 364] , test system: Recombinant human HDAC8 (Homo sapiens).
[A] 4.49
